src = patent US12161650B2

experiment: Phase 1 clinical trial, Part I single ascending doses, plasma pharmacokinetics; type: in vivo, human (healthy male volunteers); details: male, human, plasma; single oral dose 40 mg, Day 1, zero to infinity, geom. mean
experimental.endpoint: AUC (ng·h/mL)
Give bare numbers, in ng·h/mL.

Prompt: Would you kindly share the measured AUC for `COc1ccc2c(c1)CN(Cc1ccc(C(=O)O)cc1)CCS2.O=C(O)/C=C/C(=O)O` ?
Response: 71700

###

assay: Phase 1 clinical trial, Part II multiple ascending doses over 14 days, plasma pharmacokinetics; type: in vivo, human (healthy male volunteers); settings: male, human, plasma, oral; 240 mg once daily, Day 14, geom. mean; read-out: t1/2, z (converted)
experimental.endpoint: half-life (h)
Numbers only, in h.

Prompt: Would you kindly share the measured half-life for `COc1ccc2c(c1)CN(Cc1ccc(C(=O)O)cc1)CCS2.O=C(O)/C=C/C(=O)O` ?
Response: 19.8

###

assay: Phase 1 clinical trial, Part II multiple ascending doses over 14 days, plasma pharmacokinetics; assay type: in vivo, human (healthy male volunteers); conditions: male, human, plasma, oral, 60 mg, 60 mg once daily, Day 14, geom. mean
experimental.endpoint: Cmax (ng/mL)
Numbers only, in ng/mL.

Prompt: Would you kindly share the measured Cmax for `COc1ccc2c(c1)CN(Cc1ccc(C(=O)O)cc1)CCS2.O=C(O)/C=C/C(=O)O` ?
Response: 8840

###

assay: Phase 1 clinical trial, Part II multiple ascending doses over 14 days, plasma pharmacokinetics; type: in vivo, human (healthy male volunteers); details: male, human, plasma, oral; 60 mg once daily, Day 14, geom. mean; read-out: t1/2, z (converted)
experimental.endpoint: half-life (h)
One number for each entry, in h.

Prompt: Would you kindly share the measured half-life for COc1ccc2c(c1)CN(Cc1ccc(C(=O)O)cc1)CCS2.O=C(O)/C=C/C(=O)O [Compound I] ?
Response: 19.7

###

assay: Phase 1 clinical trial, Part I single ascending doses, plasma pharmacokinetics; type: in vivo, human (healthy male volunteers); conditions: male, human, plasma; single oral dose 400 mg, Day 1, geom. mean
experimental.endpoint: Cmax (µg/mL)
One number for each entry, in µg/mL.

Prompt: Would you kindly share the measured Cmax for COc1ccc2c(c1)CN(Cc1ccc(C(=O)O)cc1)CCS2.O=C(O)/C=C/C(=O)O [Compound I] ?
Response: 35.1

###

assay: Phase 1 clinical trial, Part I single ascending doses, plasma pharmacokinetics; type: in vivo, human (healthy male volunteers); conditions: male, human, plasma; single oral dose 160 mg, Day 1, geom. mean
experimental.endpoint: Cmax (ng/mL)
Answers are plain numbers, in ng/mL.

Prompt: Would you kindly share the measured Cmax for COc1ccc2c(c1)CN(Cc1ccc(C(=O)O)cc1)CCS2.O=C(O)/C=C/C(=O)O [Compound I] ?
Response: 15500

###

experiment: Phase 1b study in RYR1-Related Myopathy patients, plasma pharmacokinetics; format: in vivo, human (RYR1-Related Myopathy patients); settings: human, plasma, po, 120 mg, 120 mg oral daily, Day 28; read-out: Cmin, individual values
experimental.endpoint: concentration at 28 day

Prompt: Would you kindly share the measured concentration at 28 day for `COc1ccc2c(c1)CN(Cc1ccc(C(=O)O)cc1)CCS2.O=C(O)/C=C/C(=O)O` ?
Response: 5800 to 7760 ng/mL

###

assay: Phase 1b study in RYR1-Related Myopathy patients, plasma pharmacokinetics; format: in vivo, human (RYR1-Related Myopathy patients); conditions: human, plasma, po, 120 mg, 120 mg oral daily for 28 days, Day 28, n 3, geometric mean; read-out: Cmax, ss
experimental.endpoint: Cmax

Prompt: Would you kindly share the measured Cmax for `COc1ccc2c(c1)CN(Cc1ccc(C(=O)O)cc1)CCS2.O=C(O)/C=C/C(=O)O` ?
Response: ~19200 ng/mL
